Source of measurements: patent US4956384A

Below, each of the molecules is paired with its reported logP value.
# PROTOCOL_TEXT: octanol/water partition coefficient
# Type: physicochemical
# MEASUREMENT_PARAMETERS: octanol/water; Table I, 2-acyl derivatives of isosorbide 5-nitrate; read-out: Partition coeff. (octanol/H2O) (converted)
READOUT_LABEL: logP

[
  {
    "MOLECULE": "CC(=O)O[C@H]1CO[C@H]2[C@@H]1OC[C@H]2O[N+](=O)[O-] [IS-2A-5N, isosorbide 2-acetate 5-nitrate, reference compound]",
    "READOUT_LABEL": "logP",
    "MEASURED_VALUE": 0.579
  },
  {
    "MOLECULE": "O=C(O)CCC(=O)O[C@H]1CO[C@H]2[C@@H]1OC[C@H]2O[N+](=O)[O-] [XIV]",
    "READOUT_LABEL": "logP",
    "MEASURED_VALUE": 0.294
  },
  {
    "MOLECULE": "CCC(=O)O[C@H]1CO[C@H]2[C@@H]1OC[C@H]2O[N+](=O)[O-] [IS-2P-5N, isosorbide 5-nitrate 2-propionate, reference compound]",
    "READOUT_LABEL": "logP",
    "MEASURED_VALUE": 1.15
  },
  {
    "MOLECULE": "O=C(CCC(=O)O[C@H]1CO[C@H]2[C@@H]1OC[C@H]2O[N+](=O)[O-])O[C@H]1CO[C@H]2[C@@H]1OC[C@H]2O[N+](=O)[O-] [XII]",
    "READOUT_LABEL": "logP",
    "MEASURED_VALUE": 1.81
  },
  {
    "MOLECULE": "CCOC(=O)CCCCC(=O)O[C@H]1CO[C@H]2[C@@H]1OC[C@H]2O[N+](=O)[O-] [XI]",
    "READOUT_LABEL": "logP",
    "MEASURED_VALUE": 1.48
  },
  {
    "MOLECULE": "CCCCCCCCCCCCCCCC(=O)O[C@H]1CO[C@H]2[C@@H]1OC[C@H]2O[N+](=O)[O-] [III]",
    "READOUT_LABEL": "logP",
    "MEASURED_VALUE": 1.35
  },
  {
    "MOLECULE": "COc1ccc(C=CC(=O)O[C@H]2CO[C@H]3[C@@H]2OC[C@H]3O[N+](=O)[O-])cc1OC [IV]",
    "READOUT_LABEL": "logP",
    "MEASURED_VALUE": 2.96
  }
]
